Test system: Escherichia coli
Assay: Antibacterial activity against Escherichia coli 3963 by Etest method
Assay type: functional
MIC overview
Kindly answer with a numeric value in µg/mL, unit omitted.

// below: answered molecules
1. CO/N=C(\C(=O)N[C@@H]1C(=O)N2C(C(=O)O)=C(COC(C)=O)CS[C@H]12)c1csc(N)n1    0.047
2. O=C(O)c1cn(C2CC2)c2cc(N3CCNCC3)c(F)cc2c1=O    0.38
3. CO/N=C(\C(=O)N[C@@H]1C(=O)N2C(C(=O)O)=C(CSc3nc(=O)c(O)nn3C)CS[C@H]12)c1csc(N)n1    0.032
4. CCn1cc(C(=O)O)c(=O)c2ccc(C)nc21    16

Sample CCN1CCN(c2cc3c(cc2F)c(=O)c(C(=O)O)cn3C2CC2)CC1 , system: Escherichia coli. Its MIC is 2

Cited source: ChEMBL document CHEMBL1649536
